From: PubChem BioAssay (NCATS)

- PROTOCOL: BET inhibitor-based combinations targeting novel dependencies in MECOM-rearranged (r) AML: AML-191 cell line (AID 2202236; also: nearly all actives have a fitted effect of over 35% in size)
- CONDITION SET: AML-191 viability, CellTiter-Glo luminescence, 48 h; series mostly up to 46 µM
Results filed as inconclusive are left out. Activity calls are given as the source filed them. Calls follow the shape of the dose curve; as a rule, active = well fitted inhibition curve with a large enough effect; inconclusive = small, poorly fitted or top-dose-only effect; inactive = flat fitted curve, though single readings scatter.
Classes used: active, inactive

                                   compound  class_assignment
0     CCC1(C)CC(=O)NC1=O (stereo not drawn)          inactive
1  Cc1n[nH]c(C)c1Cc1sc2c(c1C(=O)N1C[C@H](O)CO1)c(=O)n(C)c(=O)n2CC(C)C          inactive
2  CCOc1ccn(-c2ccc(F)cc2)c(=O)c1C(=O)Nc1ccc(Oc2ccnc(N)c2Cl)c(F)c1            active
3  CC[C@H](C)C(=O)O[C@H]1C[C@@H](C)C=C2C=C[C@H](C)[C@H](CC[C@@H]3C[C@@H](O)CC(=O)O3)[C@H]21            active
4  COC(=O)C[C@](O)(CCCC(C)(C)O)C(=O)O[C@@H]1C(OC)=C[C@]23CCCN2CCc2cc4c(cc2[C@H]13)OCO4            active
5  COc1cc(C(=O)NS(=O)(=O)c2ccccc2C)ccc1Cc1cn(C)c2ccc(NC(=O)OC3CCCC3)cc12          inactive
6  CCn1cc(C(=O)O)c(=O)c2cc(F)c(N3CCN(C)CC3)cc21          inactive
7  CCOC(=O)C(C)Oc1cccc2c(=O)n(CC(=O)Nc3ccc4c(c3)OCCO4)ccc12 (stereo not drawn)          inactive

###

- PROTOCOL: BET inhibitor-based combinations targeting novel dependencies in MECOM-rearranged (r) AML: UCSD-AML1 cell line (AID 2202235); also: nearly all actives have a fitted effect of over 40% in size
- CONDITION SET: UCSD-AML1 AML cells viability, CellTiter-Glo, 48 h; series mostly up to 46 µM
Records with an inconclusive call do not appear. Calls of active or inactive are those of the source. The call rests on the fitted dose curve; in most records, active means well fitted inhibition curve with a large enough effect; inconclusive means small, poorly fitted or top-dose-only effect; inactive means no such curve, though single readings can be large or run the other way.
Classes used: 1.0 (active), 0.0 (inactive)

>>> print(df.to_string())
                                    molecule  class_assignment
 0           O=C(NCCCCN1CCOCC1)c1cc2ccccc2o1               0.0
 1  C=CC(=O)Nc1cc(Nc2nccc(-c3cn(C)c4ccccc34)n2)c(OC)cc1N(C)CCN(C)C               1.0
 2  CN(C)CCOc1cc(-c2cn[nH]c2)ccc1NC(=O)C1COc2ccccc2O1 (stereo not drawn)               0.0
 3  COc1cc(C[C@@H](CO)[C@H](CO)Cc2ccc(O)c(OC)c2)ccc1O               0.0
 4  OC[C@H]1O[C@@H](Oc2cc(O)cc(/C=C/c3ccc(O)cc3)c2)[C@H](O)[C@@H](O)[C@@H]1O               0.0
 5  NC(=O)c1cccc(-c2cccc(OC(=O)NC3CCCCC3)c2)c1               0.0
 6  O=C(O)c1ccc(CCCc2ccc(OCCc3ccc(F)cc3)cc2)o1               0.0
 7  CCN(CC)CCCC(C)Nc1c2ccc(Cl)cc2nc2ccc(OC)cc12 (stereo not drawn)               1.0
 8                             NCCS(=O)(=O)O               0.0
 9  CCOCC(O)COc1ccc(NC(=O)CC[S+](C)C)cc1 (stereo not drawn)               0.0
10             O=C1NCCc2[nH]c(-c3ccncc3)cc21               1.0
11  COc1ccc2c(Oc3ccc(NC(=O)c4c(C)n(CC(C)(C)O)n(-c5ccccc5)c4=O)cc3F)ccnc2c1               0.0
12  COc1nc(C)cnc1NS(=O)(=O)c1cccnc1-c1ccc(-c2nnco2)cc1               0.0
13   CC(C)(OCc1nn(Cc2ccccc2)c2ccccc12)C(=O)O               0.0
14  COc1cc2c(Nc3ccc(NC(=O)c4ccccc4)cc3)ncnc2cc1OCCCN1CCOCC1               0.0
15  O=C1c2c(O)ccc(O)c2C(=O)c2c(NCCNCCO)ccc(NCCNCCO)c21               1.0
16  Oc1cc2c(cc1O)C1c3ccc(O)c(O)c3OCC1(O)C2 (stereo not drawn)               1.0
17  CC[C@@H]1C(=O)N(C)c2cnc(Nc3ccc(C(=O)NC4CCN(C)CC4)cc3OC)nc2N1C1CCCC1               1.0
18  CCOC(=O)C=C[C@H](C[C@@H]1CCNC1=O)NC(=O)[C@@H](CC(=O)[C@@H](NC(=O)c1cc(C)on1)C(C)C)Cc1ccc(F)cc1               0.0
19  Nc1ccn([C@@H]2C(F)=C(CO)[C@@H](O)[C@H]2O)c(=O)n1               1.0
20             Nc1nc(N)nc(-c2cc(Cl)ccc2Cl)n1               0.0
21  Cc1ccccc1C(C(=O)NC1CCCCC1)N(C(=O)Cn1ccnc1C)c1cccc(F)c1 (stereo not drawn)               0.0
22  Clc1ccc(C2(c3ccc(-c4cn[nH]c4)cc3)CCNCC2)cc1               1.0
23  CCCC(CCC)C(=O)Nc1ccn([C@@H]2O[C@H](CO)[C@@H](O)C2(F)F)c(=O)n1               1.0
24   OCCCNc1cc(-c2ccnc(Nc3cccc(Cl)c3)n2)ccn1               1.0
25  COC1CCC(C(=O)c2ccc3nc4c(cc3c2)CCCO4)CC1 (stereo not drawn)               0.0
26  Cc1cnc(Nc2cccc(CN3CCOCC3)c2)nc1Nc1cccc(S(=O)(=O)NC(C)(C)C)c1               1.0
27  C[C@H](Nc1ncnc2nc[nH]c12)c1cc2cccc(Cl)c2c(=O)n1-c1ccccc1               1.0
28  O=C1N(c2ccccc2)c2ccccc2C1(Cc1ccncc1)Cc1ccncc1               0.0
29  CC(C)c1noc(N2CCC(COc3ccc(-c4ccc(S(C)(=O)=O)cc4)nc3)CC2)n1               0.0
30  CN1CCN(c2ccc(OC(F)(F)F)c(Nc3ncc4c(n3)-c3c(c(C(N)=O)nn3CCO)CC4)c2)CC1               1.0
31  CCc1c(O)cc(O)c(C(=O)c2ccc(OCCN3CCOCC3)c(OC)c2)c1CC(=O)N(CCOC)CCOC               1.0
32     Cc1cc(C)c(/C=C2\C(=O)Nc3ccccc32)[nH]1               0.0
